Recorded inhibition, one value per entry.
- study-target: Tryptophan 2,3-dioxygenase (Homo sapiens)
- experiment-summary: Inhibition of human N-terminal His-tagged TDO expressed in Escherichia coli assessed as formation of N'-formyl-kynurenine at 1 uM using D-tryptophan as a substrate by methylene blue based assay relative to control
# unit: % | format: bare number

Fill in: inhibition of COc1ccc(C)c2c1CC1(C(=O)N(C)C(=O)N1C)C1=C2C(=O)c2[nH]cc(CCN(C)C)c2C1=O (stereo unspecified) is ___
0

Find the recorded inhibition belonging to COc1ccc(C)c2c1CC1(C(=O)N(C)C(=O)N1C)C1=C2C(=O)c2[nH]cc(CCNCc3cccc(Cl)c3)c2C1=O (stereo unspecified) and report it.
0

Suppose we examine the compound COc1ccc(C)c2c1CC1(C(=O)N(C)C(=O)N1C)C1=C2C(=O)c2[nH]cc(CCNC(=O)c3ccco3)c2C1=O (stereo unspecified) ; what inhibition value has been reported?
0

Given the entry COc1ccc(C)c2c1CC1(C(=O)N(C)C(=O)N1C)C1=C2C(=O)c2[nH]cc(CCNC(=O)c3ccccc3)c2C1=O (stereo unspecified) , report its measured inhibition.
0

Data request, read-out inhibition, for COc1ccc(C)c2c1CC1(C(=O)N(C)C(=O)N1C)C1=C2C(=O)c2[nH]cc(CCNCc3ccccc3Br)c2C1=O (stereo unspecified)
0

Name the recorded inhibition for COc1ccc(C)c2c1CC1(C(=O)N(C)C(=O)N1C)C1=C2C(=O)c2[nH]cc(CCNCC(C)(C)C)c2C1=O (stereo unspecified) .
0
